Reported protein stability index is given for each of the following variants.
B1: PTPLAD1 (parent)
chain: YSFYMLTCIDMDWKVLTWLRYTLW

# Variants of: B1
# method-notes: protein stability index of a GFP-peptide fusion (GPS, HEK-293T) (PSI 1-6); higher = more stable;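 also: lentivirally expressed fusions sorted by FACS into six bins by GFP to DsRed ratio, PSI derived from sequencing read proportions per bin multiplied by bin number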
# measurement-setup: c terminus: a fixed tail appended
// return just the number, without any unit appended

Consider YSFYMLTCIDMDWKVLTWSRYTLW [L19S] . Its measured protein stability index is 1.22

Consider YSFYMLTWIDMDWKVLTWLRYTLW [C8W] . Its measured protein stability index is 2.54

Consider YSFYMHTCIDMDWKVLTWLRYTLW [L6H] . Its measured protein stability index is 3.22

Consider YSFYMLTCIDMDWKCLTWLRYTLW [V15C] . Its measured protein stability index is 3.85

Consider YSFYMLTCIDMDWKYLTWLRYTLW [V15Y] . Its measured protein stability index is 3.09

Consider YSFYMLTCIDMFWKVLTWLRYTLW [D12F] . Its measured protein stability index is 2.23

Consider YSFYMLSCIDMDWKVLTWLRYTLW [T7S] . Its measured protein stability index is 2.16
